Biological target: EphA4 (Mus musculus, UniProt Q03137)
Assay: Kinobeads elution with test compound, mouse brain lysate, MS
Assay type: binding
Details: kinase released from kinobeads by specific elution
Yes means recorded mass spectrometry score, EphA4 is 1000 or above; No means it is below 1000.

Study these solved cases before continuing.
CC(C)[C@H](CO)Nc1nc(Nc2ccc(C(=O)O)c(Cl)c2)c2ncn(C(C)C)c2n1 [Purvalanol B, reference compound]    Yes
Cn1c(=O)c(-c2c(Cl)cccc2Cl)cc2cnc(Nc3ccc(CN)cc3)cc21    Yes
CCCCCCCCCCCCOS(=O)(=O)[O-].[Na+]    No

(Q) // inclusive: mass spectrometry score, EphA4 at least 1000? input: CNC1CC2OC(C)(C1OC)n1c3ccccc3c3c4c(c5c6ccccc6n2c5c31)C(=O)NC4 (centres unmarked)
(A) No

(Q) // inclusive: mass spectrometry score, EphA4 at least 1000? input: `NCc1ccc(Nc2ncc(F)c(Nc3ccccc3)n2)cc1`
(A) No

====

Entries annotated with measured mass spectrometry score, EphB2
Target: EphB2 (Mus musculus, UniProt P54763)
Sequence (P54763 19-986): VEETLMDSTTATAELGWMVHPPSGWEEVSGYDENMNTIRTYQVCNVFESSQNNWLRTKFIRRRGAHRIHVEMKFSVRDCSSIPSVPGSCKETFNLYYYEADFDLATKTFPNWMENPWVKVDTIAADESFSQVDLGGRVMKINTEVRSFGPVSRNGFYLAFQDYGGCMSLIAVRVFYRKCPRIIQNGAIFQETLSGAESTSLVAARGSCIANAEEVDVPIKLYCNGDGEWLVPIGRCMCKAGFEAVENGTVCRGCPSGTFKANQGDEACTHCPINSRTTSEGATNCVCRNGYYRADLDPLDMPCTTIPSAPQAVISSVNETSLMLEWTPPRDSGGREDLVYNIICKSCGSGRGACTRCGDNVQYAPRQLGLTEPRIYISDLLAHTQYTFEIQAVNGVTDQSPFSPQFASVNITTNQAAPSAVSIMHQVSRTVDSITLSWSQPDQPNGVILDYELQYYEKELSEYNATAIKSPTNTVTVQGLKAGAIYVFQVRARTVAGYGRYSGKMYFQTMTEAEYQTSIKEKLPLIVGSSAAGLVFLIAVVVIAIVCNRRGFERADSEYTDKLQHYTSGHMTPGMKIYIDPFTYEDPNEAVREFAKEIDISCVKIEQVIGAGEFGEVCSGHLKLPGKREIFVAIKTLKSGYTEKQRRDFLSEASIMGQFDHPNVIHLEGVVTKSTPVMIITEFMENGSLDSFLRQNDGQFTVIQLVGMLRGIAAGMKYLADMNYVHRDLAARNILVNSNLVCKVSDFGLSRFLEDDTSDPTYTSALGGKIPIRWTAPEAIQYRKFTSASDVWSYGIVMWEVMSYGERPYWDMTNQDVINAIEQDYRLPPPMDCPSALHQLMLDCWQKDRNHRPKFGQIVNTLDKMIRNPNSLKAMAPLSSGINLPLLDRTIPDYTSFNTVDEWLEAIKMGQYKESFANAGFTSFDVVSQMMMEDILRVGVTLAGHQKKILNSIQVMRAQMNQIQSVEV
Experiment: Kinobeads elution with test compound, mouse brain lysate, MS
Assay type: binding
Conditions: kinase released from kinobeads by specific elution
Number, no unit, nothing else.

CC(C)[C@H](CO)Nc1nc(Nc2ccc(C(=O)O)c(Cl)c2)c2ncn(C(C)C)c2n1 [Purvalanol B, reference compound]    1334
NCc1ccc(Nc2ncc(F)c(Nc3ccccc3)n2)cc1    149
CNC1CC2OC(C)(C1OC)n1c3ccccc3c3c4c(c5c6ccccc6n2c5c31)C(=O)NC4 (centres unmarked)    114

(Q) Form: Entry = `Cn1c(=O)c(-c2c(Cl)cccc2Cl)cc2cnc(Nc3ccc(CN)cc3)cc21` | System = EphB2 (Mus musculus, UniProt P54763) | mass spectrometry score, EphB2 = ____
(A) 1004

(Q) Form: Entry = `CCCCCCCCCCCCOS(=O)(=O)[O-].[Na+]` | System = EphB2 (Mus musculus, UniProt P54763) | mass spectrometry score, EphB2 = ____
(A) 437

====

Target: SRC (Mus musculus, UniProt P05480)
Construct: from tissue; host or cells: mouse brain
Sequence (P05480 whole entry): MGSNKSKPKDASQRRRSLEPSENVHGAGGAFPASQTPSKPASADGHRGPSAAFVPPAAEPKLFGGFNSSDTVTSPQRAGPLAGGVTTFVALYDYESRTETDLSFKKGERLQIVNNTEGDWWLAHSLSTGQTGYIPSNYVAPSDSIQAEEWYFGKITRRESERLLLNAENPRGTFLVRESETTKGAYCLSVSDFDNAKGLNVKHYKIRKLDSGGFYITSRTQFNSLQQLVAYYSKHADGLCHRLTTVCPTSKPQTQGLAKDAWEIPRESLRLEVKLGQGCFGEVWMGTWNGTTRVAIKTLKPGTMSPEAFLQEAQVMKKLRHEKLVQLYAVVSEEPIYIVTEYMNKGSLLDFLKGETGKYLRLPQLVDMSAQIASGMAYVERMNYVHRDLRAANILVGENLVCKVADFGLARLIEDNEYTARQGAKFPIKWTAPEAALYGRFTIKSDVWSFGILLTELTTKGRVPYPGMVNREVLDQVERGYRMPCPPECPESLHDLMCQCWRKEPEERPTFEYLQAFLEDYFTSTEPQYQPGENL
Test: Kinobeads elution with test compound, mouse brain lysate, MS
Format: binding
Conditions: kinase released from kinobeads by specific elution
Entries annotated with measured mass spectrometry score, SRC
Number, no unit, nothing else.

Past entries and their recorded results:
Cn1c(=O)c(-c2c(Cl)cccc2Cl)cc2cnc(Nc3ccc(CN)cc3)cc21    351
CNC1CC2OC(C)(C1OC)n1c3ccccc3c3c4c(c5c6ccccc6n2c5c31)C(=O)NC4 (stereo not shown)    546
CC(C)[C@H](CO)Nc1nc(Nc2ccc(C(=O)O)c(Cl)c2)c2ncn(C(C)C)c2n1 [Purvalanol B, reference compound]    544

Proceed to the following item.
(Q) Need mass spectrometry score, SRC of `CCCCCCCCCCCCOS(=O)(=O)[O-].[Na+]` , thanks.
(A) 419

====

Biological target: SRC (Mus musculus, UniProt P05480)
Construct: from tissue; host or cells: mouse brain
Assay: Kinobeads elution with test compound, mouse brain lysate, MS
Format: binding
Settings: kinase released from kinobeads by specific elution
Measurement Type: number of identified peptides, SRC

Past entries and their recorded results:
CNC1CC2OC(C)(C1OC)n1c3ccccc3c3c4c(c5c6ccccc6n2c5c31)C(=O)NC4 (stereo not shown)    13
Cn1c(=O)c(-c2c(Cl)cccc2Cl)cc2cnc(Nc3ccc(CN)cc3)cc21    9

(Q) Need number of identified peptides, SRC of `CCCCCCCCCCCCOS(=O)(=O)[O-].[Na+]` , thanks.
(A) 25

(Q) Need number of identified peptides, SRC of CC(C)[C@H](CO)Nc1nc(Nc2ccc(C(=O)O)c(Cl)c2)c2ncn(C(C)C)c2n1 [Purvalanol B, reference compound] , thanks.
(A) 13

====

Target: JNK3 (Mus musculus, UniProt Q61831)
Construct: from tissue; host or cells: mouse brain
Sequence (Q61831 whole entry): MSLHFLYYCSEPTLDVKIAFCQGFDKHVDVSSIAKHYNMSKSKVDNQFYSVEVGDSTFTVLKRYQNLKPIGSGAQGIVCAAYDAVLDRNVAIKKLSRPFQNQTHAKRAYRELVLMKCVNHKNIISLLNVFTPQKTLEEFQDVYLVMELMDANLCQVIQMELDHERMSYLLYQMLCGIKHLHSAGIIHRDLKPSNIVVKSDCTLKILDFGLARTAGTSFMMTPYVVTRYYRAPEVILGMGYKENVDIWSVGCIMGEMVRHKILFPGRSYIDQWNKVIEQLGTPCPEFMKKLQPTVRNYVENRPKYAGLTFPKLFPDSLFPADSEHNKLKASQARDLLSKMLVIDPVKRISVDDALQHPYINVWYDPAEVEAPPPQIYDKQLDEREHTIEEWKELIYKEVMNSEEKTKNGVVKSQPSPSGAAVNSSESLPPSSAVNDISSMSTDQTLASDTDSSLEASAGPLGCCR
Experiment: Kinobeads elution with test compound, mouse brain lysate, MS
Type: binding
Settings: kinase released from kinobeads by specific elution
Entries annotated with measured mass spectrometry score, JNK3
Number, no unit, nothing else.

Past entries and their recorded results:
CC(C)[C@H](CO)Nc1nc(Nc2ccc(C(=O)O)c(Cl)c2)c2ncn(C(C)C)c2n1 [Purvalanol B, reference compound]    284
CCCCCCCCCCCCOS(=O)(=O)[O-].[Na+] [SDS]    447
Oc1ccc(-c2nc(-c3ccc(F)cc3)c(-c3ccncc3)[nH]2)cc1 [CZC7098]    542

(Q) Need mass spectrometry score, JNK3 of Cn1c(=O)c(-c2c(Cl)cccc2Cl)cc2cnc(Nc3ccc(CN)cc3)cc21 [CZC7324] , thanks.
(A) 782

(Q) Need mass spectrometry score, JNK3 of NCc1ccc(Nc2ncc(F)c(Nc3ccccc3)n2)cc1 [CZC00008004] , thanks.
(A) 642

(Q) Need mass spectrometry score, JNK3 of CNC1CC2OC(C)(C1OC)n1c3ccccc3c3c4c(c5c6ccccc6n2c5c31)C(=O)NC4 (stereo not drawn) [CZC9280] , thanks.
(A) 363

====

Target: CaMK2g (Mus musculus)
Sequence (Q923T9 whole entry): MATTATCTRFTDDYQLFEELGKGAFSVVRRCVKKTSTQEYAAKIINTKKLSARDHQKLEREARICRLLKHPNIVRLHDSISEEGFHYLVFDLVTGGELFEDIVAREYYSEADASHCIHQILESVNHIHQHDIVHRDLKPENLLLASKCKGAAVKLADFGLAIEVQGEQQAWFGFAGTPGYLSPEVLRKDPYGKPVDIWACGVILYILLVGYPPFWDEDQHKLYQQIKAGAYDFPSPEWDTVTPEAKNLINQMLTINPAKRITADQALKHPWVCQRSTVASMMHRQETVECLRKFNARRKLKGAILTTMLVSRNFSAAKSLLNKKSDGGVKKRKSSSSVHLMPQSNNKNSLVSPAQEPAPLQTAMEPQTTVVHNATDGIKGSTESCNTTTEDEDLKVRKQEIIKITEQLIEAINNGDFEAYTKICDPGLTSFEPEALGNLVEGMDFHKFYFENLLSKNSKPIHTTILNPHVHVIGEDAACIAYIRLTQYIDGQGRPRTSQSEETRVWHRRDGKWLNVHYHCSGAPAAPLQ
Assay: Kinobeads elution with test compound, mouse brain lysate, MS
Type: binding
Conditions: kinase released from kinobeads by specific elution
Measurement Type: number of identified peptides, CaMK2g
Number, no unit, nothing else.

Past entries and their recorded results:
CCCCCCCCCCCCOS(=O)(=O)[O-].[Na+]    42
NCCCn1cc(C2=C(c3c[nH]c4ccccc34)C(=O)NC2=O)c2ccccc21 [CZC1038, Bisindolylmaleimide III, reference compound]    18
CNC1CC2OC(C)(C1OC)n1c3ccccc3c3c4c(c5c6ccccc6n2c5c31)C(=O)NC4 (stereo not shown)    25

Proceed to the following item.
(Q) Need number of identified peptides, CaMK2g of `NCc1ccc(Nc2ncc(F)c(Nc3ccccc3)n2)cc1` , thanks.
(A) 27

====

Target: CDK5 (Mus musculus)
Sequence (P49615 whole entry): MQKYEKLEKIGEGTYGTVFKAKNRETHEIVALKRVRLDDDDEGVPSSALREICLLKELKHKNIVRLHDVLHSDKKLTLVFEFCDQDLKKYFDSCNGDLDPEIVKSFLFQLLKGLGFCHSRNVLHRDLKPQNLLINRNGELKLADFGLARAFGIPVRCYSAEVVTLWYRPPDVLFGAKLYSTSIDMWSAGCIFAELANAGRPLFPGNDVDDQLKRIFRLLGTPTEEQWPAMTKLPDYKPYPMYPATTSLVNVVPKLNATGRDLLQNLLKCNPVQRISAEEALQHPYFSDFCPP
Test: Kinobeads elution with test compound, mouse brain lysate, MS
Type: binding
Conditions: kinase released from kinobeads by specific elution
true (1) means recorded number of identified peptides, CDK5 is 30 or above; false (0) means it is below 30.

Study these solved cases before continuing.
CCCCCCCCCCCCOS(=O)(=O)[O-].[Na+] [SDS]    false (0)
NCc1ccc(Nc2ncc(F)c(Nc3ccccc3)n2)cc1 [CZC00008004]    false (0)
Cn1c(=O)c(-c2c(Cl)cccc2Cl)cc2cnc(Nc3ccc(CN)cc3)cc21 [CZC7324]    false (0)
CC(C)[C@H](CO)Nc1nc(Nc2ccc(C(=O)O)c(Cl)c2)c2ncn(C(C)C)c2n1 [Purvalanol B, reference compound]    true (1)
Oc1ccc(-c2nc(-c3ccc(F)cc3)c(-c3ccncc3)[nH]2)cc1 [CZC7098]    false (0)
CNC1CC2OC(C)(C1OC)n1c3ccccc3c3c4c(c5c6ccccc6n2c5c31)C(=O)NC4 (stereo not shown) [CZC9280]    true (1)

Okay, now this compound:
(Q) // inclusive: number of identified peptides, CDK5 at least 30? input: NCCCn1cc(C2=C(c3c[nH]c4ccccc34)C(=O)NC2=O)c2ccccc21 [CZC1038, Bisindolylmaleimide III, reference compound]
(A) false (0)

====

Tested on: RSK1 (Mus musculus)
Construct: from tissue; host or cells: mouse brain
Sequence (Q9WUT3 whole entry): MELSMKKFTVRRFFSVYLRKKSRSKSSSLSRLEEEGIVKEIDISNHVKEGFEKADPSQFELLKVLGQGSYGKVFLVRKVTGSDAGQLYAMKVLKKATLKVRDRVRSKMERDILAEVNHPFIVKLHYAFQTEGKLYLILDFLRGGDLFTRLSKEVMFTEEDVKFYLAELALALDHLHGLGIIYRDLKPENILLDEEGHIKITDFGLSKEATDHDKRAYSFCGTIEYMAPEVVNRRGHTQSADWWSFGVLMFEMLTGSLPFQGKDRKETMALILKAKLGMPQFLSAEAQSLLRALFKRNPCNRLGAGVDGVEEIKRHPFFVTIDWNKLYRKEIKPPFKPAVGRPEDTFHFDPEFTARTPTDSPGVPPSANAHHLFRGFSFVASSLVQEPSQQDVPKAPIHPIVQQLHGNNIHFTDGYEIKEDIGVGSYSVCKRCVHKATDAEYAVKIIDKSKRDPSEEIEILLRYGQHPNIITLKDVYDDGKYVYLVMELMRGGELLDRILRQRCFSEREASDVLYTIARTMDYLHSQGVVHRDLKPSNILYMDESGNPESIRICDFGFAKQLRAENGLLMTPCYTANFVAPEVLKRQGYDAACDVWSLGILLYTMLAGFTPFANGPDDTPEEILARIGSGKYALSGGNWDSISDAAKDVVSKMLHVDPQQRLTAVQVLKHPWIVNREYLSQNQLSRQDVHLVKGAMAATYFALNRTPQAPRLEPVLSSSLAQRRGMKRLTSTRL
Assay: Kinobeads elution with test compound, mouse brain lysate, MS
Format: binding
Details: kinase released from kinobeads by specific elution
Measurement Type: number of identified peptides, RSK1
Number, no unit, nothing else.

Past entries and their recorded results:
CNC1CC2OC(C)(C1OC)n1c3ccccc3c3c4c(c5c6ccccc6n2c5c31)C(=O)NC4 (stereo not drawn)    47
CC(C)[C@H](CO)Nc1nc(Nc2ccc(C(=O)O)c(Cl)c2)c2ncn(C(C)C)c2n1 [Purvalanol B, reference compound]    32
CCCCCCCCCCCCOS(=O)(=O)[O-].[Na+]    45
NCc1ccc(Nc2ncc(F)c(Nc3ccccc3)n2)cc1    9
NCCCn1cc(C2=C(c3c[nH]c4ccccc34)C(=O)NC2=O)c2ccccc21 [CZC1038, Bisindolylmaleimide III, reference compound]    7

(Q) Need number of identified peptides, RSK1 of `Cn1c(=O)c(-c2c(Cl)cccc2Cl)cc2cnc(Nc3ccc(CN)cc3)cc21` , thanks.
(A) 19

====

Entries annotated with measured number of identified peptides, AAK1
Target: AAK1 (Mus musculus)
Sequence (Q3UHJ0 whole entry): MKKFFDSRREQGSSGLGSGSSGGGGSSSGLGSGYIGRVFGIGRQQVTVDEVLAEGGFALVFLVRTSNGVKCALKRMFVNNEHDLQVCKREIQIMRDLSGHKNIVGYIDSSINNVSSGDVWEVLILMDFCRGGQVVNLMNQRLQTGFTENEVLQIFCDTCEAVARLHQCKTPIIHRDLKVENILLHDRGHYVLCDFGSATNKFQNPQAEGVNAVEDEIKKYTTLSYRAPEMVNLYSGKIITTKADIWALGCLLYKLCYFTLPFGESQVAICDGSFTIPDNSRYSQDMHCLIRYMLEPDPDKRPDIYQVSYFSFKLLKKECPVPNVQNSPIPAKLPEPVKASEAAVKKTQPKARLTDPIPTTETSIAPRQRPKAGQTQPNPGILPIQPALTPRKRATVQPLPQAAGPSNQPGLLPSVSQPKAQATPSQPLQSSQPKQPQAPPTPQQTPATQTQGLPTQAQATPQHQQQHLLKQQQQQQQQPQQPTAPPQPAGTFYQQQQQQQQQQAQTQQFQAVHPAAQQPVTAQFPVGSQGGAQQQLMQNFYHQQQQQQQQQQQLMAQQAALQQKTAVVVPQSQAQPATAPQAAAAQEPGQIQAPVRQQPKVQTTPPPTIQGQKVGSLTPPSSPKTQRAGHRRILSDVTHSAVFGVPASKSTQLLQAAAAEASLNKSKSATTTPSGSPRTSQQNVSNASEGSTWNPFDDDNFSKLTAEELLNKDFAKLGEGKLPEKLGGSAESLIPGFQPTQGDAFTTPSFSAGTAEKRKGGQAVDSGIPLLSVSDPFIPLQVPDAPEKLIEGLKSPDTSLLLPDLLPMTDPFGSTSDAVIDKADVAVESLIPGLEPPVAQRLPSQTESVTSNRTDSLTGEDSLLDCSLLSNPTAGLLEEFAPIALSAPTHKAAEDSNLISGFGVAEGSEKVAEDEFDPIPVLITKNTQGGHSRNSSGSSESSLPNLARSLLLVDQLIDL
Experiment: Kinobeads elution with test compound, mouse brain lysate, MS
Type: binding
Settings: kinase released from kinobeads by specific elution
Number, no unit, nothing else.

CCCCCCCCCCCCOS(=O)(=O)[O-].[Na+]    32
Cn1c(=O)c(-c2c(Cl)cccc2Cl)cc2cnc(Nc3ccc(CN)cc3)cc21    35
Oc1ccc(-c2nc(-c3ccc(F)cc3)c(-c3ccncc3)[nH]2)cc1    4

Proceed to the following item.
(Q) Need number of identified peptides, AAK1 of NCCCn1cc(C2=C(c3c[nH]c4ccccc34)C(=O)NC2=O)c2ccccc21 [CZC1038, Bisindolylmaleimide III, reference compound] , thanks.
(A) 38
